I'd be grateful if you could share measured MIC for these entries.
Test system: Staphylococcus aureus ATCC29213
experimentSummary: Bacterial growth minimal inhibitory concentration (broth microdilution, CLSI M7-A7)
Type: cell-based
experimentalSetup: Staphylococcus aureus, ATCC29213, cation-adjusted Mueller-Hinton Broth, methicillin-sensitive and quinolone-sensitive strain, read-out: MIC for S. aureus ATCC29213
Report as a plain number; the unit µg/mL is understood.

Return reported MIC; argument: COc1cnnc(-c2cccc(CNCC[C@H]3CN(c4ccc5c(n4)NC(=O)CS5)C(=O)O3)c2)c1 [Example 99]
0.031

Return reported MIC; argument: COc1ccnc(-c2cccc(CNCC[C@H]3CN(c4ccc5c(n4)NC(=O)CO5)C(=O)O3)c2O)c1 [Example 106]
0.125

Return reported MIC; argument: COc1cccc(-c2cccc(CNCC[C@@H]3CN(c4ccc5c(c4)NC(=O)CS5)C(=O)O3)n2)n1 [Example 22]
0.25

Return reported MIC; argument: COc1cccc(-c2cccc(CNCC[C@@H]3CN(c4ccc5c(c4)NC(=O)CS5)C(=O)O3)c2F)c1 [Example 12]
0.5

Return reported MIC; argument: COc1cnnc(-c2cncc(CNCC[C@H]3CN(c4ccc5c(n4)NC(=O)CO5)C(=O)O3)c2)c1 [Example 110]
4

Return reported MIC; argument: COc1ccc(-c2cccc(CNCC[C@@H]3CN(c4ccc5c(c4)NC(=O)CS5)C(=O)O3)c2)cn1 [Example 16]
0.5

Return reported MIC; argument: CCOc1cccc(-c2cccc(CNCC[C@H]3CN(c4ccc5c(n4)NC(=O)CO5)C(=O)O3)c2)c1 [Example 70]
1

Return reported MIC; argument: COc1cnnc(-c2ccnc(CNCC[C@H]3CN(c4ccc5c(n4)NC(=O)CO5)C(=O)O3)c2)c1 [Example 111]
0.25

---

Tested on: Staphylococcus aureus ATCC29213
experimentSummary: Bacterial growth minimal inhibitory concentration (broth microdilution, CLSI M7-A7)
Assay type: cell-based
experimentalSetup: Staphylococcus aureus, ATCC29213, cation-adjusted Mueller-Hinton Broth, methicillin-sensitive and quinolone-sensitive strain, read-out: MIC for S. aureus ATCC29213
Values of MIC strictly less than 0.1 µg/mL map to condition met, and values of at least 0.1 µg/mL map to condition not met.

Is it true that MIC reported for N#Cc1cccc(-c2cccc(CNCCc3nn(-c4ccc5c(n4)NC(=O)CO5)c(=O)o3)c2O)n1 is less than 0.1 µg/mL?
condition not met

Is it true that MIC reported for COc1cc(-c2cccc(CNCC[C@@H]3CN(c4ccc5c(c4)NC(=O)CS5)C(=O)O3)c2)ncn1 is less than 0.1 µg/mL?
condition not met

Is it true that MIC reported for COc1cc(C#N)cc(-c2cccc(CNCC[C@@H]3CN(c4ccc5c(c4)NC(=O)CS5)C(=O)O3)c2)n1 is less than 0.1 µg/mL?
condition met

Is it true that MIC reported for COc1cccc(-c2cccc(CNCCc3cn(-c4ccc5c(n4)NC(=O)CO5)c(=O)o3)c2)n1 is less than 0.1 µg/mL?
condition met

Is it true that MIC reported for COc1ccnc(-c2cccc(CNCC[C@@H]3CN(c4ccc5c(c4)NC(=O)CS5)C(=O)O3)c2)n1 is less than 0.1 µg/mL?
condition met

Is it true that MIC reported for COc1ccc(C#N)c(-c2cccc(CNCC[C@@H]3CN(c4ccc5c(c4)NC(=O)CS5)C(=O)O3)c2)c1 is less than 0.1 µg/mL?
condition met

Is it true that MIC reported for COc1ccnc(-c2cccc(CNCC[C@@H]3CN(c4ccc5c(c4)NC(=O)CS5)C(=O)O3)c2)c1 is less than 0.1 µg/mL?
condition not met

Is it true that MIC reported for COc1ccnc(-c2cc(CNCC[C@H]3CN(c4ccc5c(n4)NC(=O)CO5)C(=O)O3)ccc2O)c1 is less than 0.1 µg/mL?
condition met

Is it true that MIC reported for COc1cccc(-c2cccc(CNCC[C@H]3CN(c4ccc5c(n4)NC(=O)CO5)C(=O)O3)c2)n1 is less than 0.1 µg/mL?
condition met

Is it true that MIC reported for COc1ccc(-c2cccc(CNCC[C@H]3CN(c4ccc5c(n4)NC(=O)CO5)C(=O)O3)c2)cc1OC is less than 0.1 µg/mL?
condition not met

Is it true that MIC reported for O=C1COc2ccc(N3C[C@H](CCNCc4cccc(-c5cccc(OCC6CC6)c5)c4)OC3=O)nc2N1 is less than 0.1 µg/mL?
condition not met

Is it true that MIC reported for COc1ccc(-c2cccc(CNCC[C@H]3CN(c4ccc5c(n4)NC(=O)CO5)C(=O)O3)c2)nn1 is less than 0.1 µg/mL?
condition not met

Is it true that MIC reported for COc1cccc(-c2cnnc(CNCC[C@H]3CN(c4ccc5c(n4)NC(=O)CO5)C(=O)O3)c2)c1 is less than 0.1 µg/mL?
condition not met

Is it true that MIC reported for COc1cccc(-c2cccc(CNCCc3nn(-c4ccc5c(n4)NC(=O)CO5)c(=O)o3)c2)c1 is less than 0.1 µg/mL?
condition not met

Is it true that MIC reported for N#Cc1cccc(-c2cc(CNCCc3cn(-c4ccc5c(n4)NC(=O)CO5)c(=O)o3)ccn2)c1 is less than 0.1 µg/mL?
condition not met

---

Test system: Staphylococcus aureus ATCC29213
experimentSummary: Bacterial growth minimal inhibitory concentration (broth microdilution, CLSI M7-A7)
Type: cell-based
experimentalSetup: Staphylococcus aureus, ATCC29213, cation-adjusted Mueller-Hinton Broth, methicillin-sensitive and quinolone-sensitive strain, read-out: MIC for S. aureus ATCC29213
observedProperty: MIC (µg/mL)
Report as a plain number; the unit µg/mL is understood.

Return reported MIC; argument: COc1cccc(-c2cccc(CNCC[C@H]3CN(c4ccc5c(n4)NC(=O)CO5)C(=O)O3)c2)c1C#N
0.125

Return reported MIC; argument: COc1cccc(-c2cccc(CNCC[C@@H]3CN(c4ccc5c(c4)NC(=O)CS5)C(=O)O3)c2)n1
0.063

Return reported MIC; argument: COc1cc(O)cc(-c2cccc(CNCC[C@@H]3CN(c4ccc5c(c4)NC(=O)CS5)C(=O)O3)c2)c1
0.5

Return reported MIC; argument: N#Cc1cccc(-c2cccc(CNCC[C@@H]3CN(c4ccc5c(c4)NC(=O)CS5)C(=O)O3)c2)c1
0.063

Return reported MIC; argument: N#Cc1cccc(-c2cccc(CNCC[C@H]3CN(c4ccc5c(c4)NC(=O)CO5)C(=O)O3)c2O)n1
0.125

Return reported MIC; argument: COc1cncc(-c2cccc(CNCC[C@H]3CN(c4ccc5c(n4)NC(=O)CO5)C(=O)O3)c2)n1
0.031

Return reported MIC; argument: N#Cc1cccc(-c2cccc(CNCC[C@H]3CN(c4ccc5c(c4)NC(=O)CS5)C(=O)O3)c2)c1
0.063

---

System: Staphylococcus aureus ATCC29213
experimentSummary: Bacterial growth minimal inhibitory concentration (broth microdilution, CLSI M7-A7)
Type: cell-based
experimentalSetup: Staphylococcus aureus, ATCC29213, cation-adjusted Mueller-Hinton Broth, methicillin-sensitive and quinolone-sensitive strain, read-out: MIC for S. aureus ATCC29213
observedProperty: MIC (µg/mL)
Report as a plain number; the unit µg/mL is understood.

What MIC appears in the records for this molecule with Staphylococcus aureus ATCC29213? COc1ccc(C#N)cc1-c1cccc(CNCC[C@H]2CN(c3ccc4c(n3)NC(=O)CO4)C(=O)O2)c1
0.5

What MIC appears in the records for this molecule with Staphylococcus aureus ATCC29213? COc1cccc(-c2cc(CNCC[C@@H]3CN(c4ccc5c(c4)NC(=O)CS5)C(=O)O3)ccc2F)c1
1

What MIC appears in the records for this molecule with Staphylococcus aureus ATCC29213? COc1cnnc(-c2cccc(CNCC[C@H]3CN(c4ccc5c(n4)NC(=O)CO5)C(=O)O3)c2)c1
0.25

What MIC appears in the records for this molecule with Staphylococcus aureus ATCC29213? N#Cc1ncccc1-c1cccc(CNCC[C@H]2CN(c3ccc4c(n3)NC(=O)CO4)C(=O)O2)c1
0.5

---

System: Staphylococcus aureus ATCC29213
experimentSummary: Bacterial growth minimal inhibitory concentration (broth microdilution, CLSI M7-A7)
Format: cell-based
experimentalSetup: Staphylococcus aureus, ATCC29213, cation-adjusted Mueller-Hinton Broth, methicillin-sensitive and quinolone-sensitive strain, read-out: MIC for S. aureus ATCC29213
observedProperty: MIC

Return reported MIC; argument: COc1cccc(-c2cccc(CNCC[C@H]3CN(c4ccc5c(n4)NC(=O)CO5)C(=O)O3)c2O)n1 [Example 93]
≤ 0.016 mg/L

Return reported MIC; argument: N#Cc1cccc(-c2cccc(CNCC[C@H]3CN(c4ccc5c(n4)NC(=O)CO5)C(=O)O3)c2)c1 [Example 40]
0.125 mg/L

Return reported MIC; argument: COc1cc(-c2cccc(CNCC[C@@H]3CN(c4ccc5c(c4)NC(=O)CS5)C(=O)O3)c2)nc(OC)n1 [Example 26]
0.5 mg/L

Return reported MIC; argument: O=C1COc2ccc(N3C[C@H](CCNCc4cccc(-c5cccc(N6CCC(O)C6)n5)c4)OC3=O)nc2N1 (mixture of isomers) [Example 57]
2 mg/L

Return reported MIC; argument: N#Cc1cccnc1-c1cccc(CNCC[C@H]2CN(c3ccc4c(n3)NC(=O)CO4)C(=O)O2)c1 [Example 62]
1 mg/L

Return reported MIC; argument: N#Cc1cccc(-c2cccc(CNCC[C@@H]3CN(c4ccc5c(n4)NC(=O)CO5)C(=O)O3)c2)c1 [Example 33]
0.125 mg/L

Return reported MIC; argument: COCCOc1cccc(-c2cccc(CNCC[C@H]3CN(c4ccc5c(n4)NC(=O)CO5)C(=O)O3)c2)c1 [Example 54]
2 mg/L
